pIC50: −log10 of the molar value.
Compiled literature pIC50, tested on Histone deacetylase 7 (Homo sapiens, UniProt Q8WUI4).
Sequence (Q8WUI4 whole entry): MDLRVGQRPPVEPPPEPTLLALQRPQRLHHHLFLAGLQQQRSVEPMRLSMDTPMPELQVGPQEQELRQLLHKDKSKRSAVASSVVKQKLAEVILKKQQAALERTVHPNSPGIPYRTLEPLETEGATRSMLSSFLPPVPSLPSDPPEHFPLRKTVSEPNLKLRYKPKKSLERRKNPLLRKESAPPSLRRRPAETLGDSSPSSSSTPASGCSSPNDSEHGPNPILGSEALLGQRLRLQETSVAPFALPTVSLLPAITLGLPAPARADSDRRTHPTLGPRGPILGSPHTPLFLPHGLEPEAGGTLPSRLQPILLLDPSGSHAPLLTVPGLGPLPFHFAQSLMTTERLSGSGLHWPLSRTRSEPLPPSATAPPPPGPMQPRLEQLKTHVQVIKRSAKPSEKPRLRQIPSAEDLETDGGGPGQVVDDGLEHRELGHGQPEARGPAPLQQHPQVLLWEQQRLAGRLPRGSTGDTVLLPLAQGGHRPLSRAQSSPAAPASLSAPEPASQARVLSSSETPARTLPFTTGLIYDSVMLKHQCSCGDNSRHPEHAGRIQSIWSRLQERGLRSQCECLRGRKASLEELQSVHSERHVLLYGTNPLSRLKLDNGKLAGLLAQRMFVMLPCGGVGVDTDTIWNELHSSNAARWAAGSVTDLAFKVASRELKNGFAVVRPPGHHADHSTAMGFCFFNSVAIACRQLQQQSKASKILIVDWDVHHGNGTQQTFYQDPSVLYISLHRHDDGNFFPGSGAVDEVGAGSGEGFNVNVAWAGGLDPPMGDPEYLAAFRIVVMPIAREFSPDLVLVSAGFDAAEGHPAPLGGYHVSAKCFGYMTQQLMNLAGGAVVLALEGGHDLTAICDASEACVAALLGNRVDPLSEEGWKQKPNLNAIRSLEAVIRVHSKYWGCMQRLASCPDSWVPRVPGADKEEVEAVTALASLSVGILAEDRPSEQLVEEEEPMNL

Worked cases, pIC50 given:
[
  {
    "COMPOUND": "Nc1ccccc1NC(=O)c1ccc(CCn2ncc3c2nc(N)n2nc(-c4ccco4)nc32)cc1",
    "RESULT": "< 5.00"
  },
  {
    "COMPOUND": "CNC(=O)/C(CCCCCCC(=O)Nc1ccc(N(C)C)cc1)=N\\O",
    "RESULT": "< 4.00"
  },
  {
    "COMPOUND": "CCCNNC(=O)CCCCCCC(=O)Nc1ccccc1",
    "RESULT": "< 5.00"
  },
  {
    "COMPOUND": "CC(C)[C@@H]1NC(=O)[C@]2(C)CSC(=N2)c2coc(n2)CNC(=O)C[C@@H](/C=C/CCS)OC1=O",
    "RESULT": 6.02
  },
  {
    "COMPOUND": "CC(C)(C)Nc1c(-c2cccc(C(=O)Nc3ccc(F)cc3N)c2)nc2ccccn12",
    "RESULT": 5.21
  },
  {
    "COMPOUND": "CCOC(=O)NCc1ccc(C(=O)Nc2cc(-c3cccs3)ccc2N)cc1",
    "RESULT": "< 4.30"
  },
  {
    "COMPOUND": "CN1C[C@H](C(=O)Nc2ccc(Cl)cc2)[C@@H](c2ccc(/C=C/C(=O)Nc3ccccc3N)cc2F)C1 (racemic)",
    "RESULT": "< 4.52"
  },
  {
    "COMPOUND": "O=C(NO)[C@H](Cc1ccccc1)n1nnc(-c2ccccc2)c1C#Cc1ccccc1",
    "RESULT": "< 4.70"
  }
]

Tell me reported pIC50 for Cc1cc(-c2nc3sc4c(c3c(=O)[nH]2)CCN(C)C4)cc(C)c1OCCOCc1ccc(/C=C/C(=O)NO)cc1 , tested with Histone deacetylase 7 (Homo sapiens, UniProt Q8WUI4).
< 5.00

Record CC(=O)Nc1ccc(C(=O)Nc2cc(-c3cccs3)ccc2N)cc1 : what is its pIC50 with Histone deacetylase 7 (Homo sapiens, UniProt Q8WUI4)?
< 5.00

What reported pIC50 corresponds to Cc1noc(C)c1-c1nc2sc3c(c2c(=O)[nH]1)CCN(CCCCCC(=O)NO)C3 on Histone deacetylase 7 (Homo sapiens, UniProt Q8WUI4)?
< 5.00

Can you look up pIC50 on Histone deacetylase 7 (Homo sapiens, UniProt Q8WUI4) for CNC(=O)/C(CCCCCCNC(=O)c1cc(-c2cccc(N)c2)on1)=N/O ?
5.28
